Sourced from ChEMBL document CHEMBL1201862

Test system: HCC 2998
protocol.notes: NCI tumour cell line growth inhibition, 48 h
Activity calls are given as the source filed them. Cut-off read from the data, not from the text of the source: active = GI50 up to about 1.1 µM and inactive = higher.
# reported GI50; entries follow
reported.metric: GI50

{"compound": "NC(=O)c1ccccc1NC(=O)C(=O)C(c1cnc2ccc([N+](=O)[O-])cc2n1)[N+](=O)[O-] (centres undefined)", "result": "> 100 µM (inactive)"}
{"compound": "O=C(Nc1ccc2[nH]c(C(=O)N3CC(CCl)c4ccc([N+](=O)[O-])cc43)cc2c1)c1cc2ccccc2o1 (centres undefined)", "result": "> 1100 µM (inactive)"}
{"compound": "NCCn1ccc(NC(c2ccccc2)(c2ccccc2)c2ccccc2)nc1=O", "result": "18 µM (inactive)"}
{"compound": "CN(Cc1cnc2nc(N)nc(N)c2n1)c1ccc(C(=O)N[C@@H](CCS(=O)(=O)O)C(=O)O)cc1", "result": "0.61 µM (active)"}
{"compound": "COc1ccc(OC)c(N2CC(N)C2=O)c1 (centres undefined)", "result": "> 100 µM (inactive)"}
{"compound": "C=C1C(=O)O[C@@H]2C[C@@]3(C)[C@H](O)CCC(=C)[C@@H]3C[C@H]12", "result": "7.05 µM (inactive)"}
{"compound": "COC(=O)/C1=C/C=C\\C[C@@]2(C)CC(c3ccoc3)OC(=O)[C@@H]2CC[C@H]1C (some centres undefined)", "result": "> 25 µM (inactive)"}
{"compound": "CCCc1cc(=O)oc2c3c(c4c(c12)OC(C)(C)CC4)O[C@@H](C)[C@H](C)[C@H]3O", "result": "13.6 µM (inactive)"}
{"compound": "O=c1c2ccccc2nc(-c2ccc(Br)cc2)n1NC1OC(CO)C(O)C(O)C1O (centres undefined)", "result": "82.4 µM (inactive)"}

---

# reported GI50; entries follow
Test system: NCI-H226
protocol.notes: NCI tumour cell line growth inhibition, 48 h
Calls of active or inactive are those of the source. Cut-off read from the data, not from the text of the source: active = GI50 up to about 1.1 µM and inactive = higher.

{"compound": "C/C=C(\\C)C(=O)OC1C(C)=C2C(C1OC(=O)CCCC)C(C)(OC(C)=O)CC(OC(=O)CCCC)C1(O)C2OC(=O)C1(C)O (centres undefined)", "target.or.test.system": "NCI-H226", "GI50": "1.19 µM (inactive)"}
{"compound": "COc1cccc(/C=C2\\C(=O)N(C(=O)Cc3ccccc3)N=C2C)c1", "target.or.test.system": "NCI-H226", "GI50": "> 100 µM (inactive)"}
{"compound": "C(=C\\c1csnn1)/c1cccnc1", "target.or.test.system": "NCI-H226", "GI50": "> 100 µM (inactive)"}
{"compound": "COc1ccc(OC)c2c(Nc3ccc(S(=O)(=O)O)c4cc(S(=O)(=O)O)cc(S(=O)(=O)O)c34)cc(C)nc12", "target.or.test.system": "NCI-H226", "GI50": "> 100 µM (inactive)"}
{"compound": "CC(C)(O)C1CC[C@]2(C)CC[C@]3(C)[C@H](CC[C@@H]4[C@@]5(C)CC[C@H](O)C(C)(C)[C@@H]5CC[C@]43C)[C@@H]12 (some centres undefined)", "target.or.test.system": "NCI-H226", "GI50": "44.4 µM (inactive)"}
{"compound": "CS(=O)(=O)c1n[nH]c2nc(O)nc(O)c12", "target.or.test.system": "NCI-H226", "GI50": "> 10 µM (inactive)"}
{"compound": "O=C(O)C1(Cc2ccc3c(c2)CCC3)Cc2cc3c(cc2C1)CCC3", "target.or.test.system": "NCI-H226", "GI50": "> 100 µM (inactive)"}
{"compound": "C=C[C@H]1CN2CCc3c([nH]c4c([C@@H]5CCCN5C)c(O)ccc34)[C@@H]2C[C@@H]1C[C@H]1c2[nH]c3ccccc3c2CCN1C", "target.or.test.system": "NCI-H226", "GI50": "2.05 µM (inactive)"}
{"compound": "COc1ccc(OCC(C)(C)O)cc1", "target.or.test.system": "NCI-H226", "GI50": "> 100 µM (inactive)"}
{"compound": "O=C(CCc1cc(-c2ccccc2)nc(S)n1)N(Cc1ccccc1)Cc1ccccc1", "target.or.test.system": "NCI-H226", "GI50": "> 100 µM (inactive)"}
{"compound": "Cc1ccc2nc3ccccc3c(C3C4C(=O)N(c5ccc(F)cc5)C(=O)C4ON3C(C(N)=O)c3ccccc3)c2c1 (centres undefined)", "target.or.test.system": "NCI-H226", "GI50": "46.3 µM (inactive)"}
{"compound": "COC(=O)c1ccc(NC(=O)c2cc(OC)c(OC)c(OC)c2)cc1", "target.or.test.system": "NCI-H226", "GI50": "2.54 µM (inactive)"}
{"compound": "CSc1c(C#N)c(O)n(-c2ccc(C)cc2)c(=O)c1C(C)=O", "target.or.test.system": "NCI-H226", "GI50": "> 100 µM (inactive)"}
{"compound": "CCOC(=O)c1cccnc1C(OC(C)=O)OC(C)=O", "target.or.test.system": "NCI-H226", "GI50": "> 100 µM (inactive)"}
{"compound": "O=C1NC2(CCCCC2)C2CCCCC(O)C12 (centres undefined)", "target.or.test.system": "NCI-H226", "GI50": "> 100 µM (inactive)"}
{"compound": "Nc1nc(Cl)cc(NCCCCCCCCCCNc2cc(Cl)nc(N)n2)n1", "target.or.test.system": "NCI-H226", "GI50": "1.99 µM (inactive)"}
{"compound": "C(=C/c1nc2ccccc2o1)/c1ccc2c(c1)OCO2", "target.or.test.system": "NCI-H226", "GI50": "18 µM (inactive)"}
{"compound": "COc1ccc(C2NC3=C(CCCC3)N2)cc1", "target.or.test.system": "NCI-H226", "GI50": "> 100 µM (inactive)"}
{"compound": "COc1cc2c(cc1O)CC1c3c(cc(O)c(OC)c3-2)CCN1C (centres undefined)", "target.or.test.system": "NCI-H226", "GI50": "69.7 µM (inactive)"}

---

System: HCT-116
protocol.notes: NCI tumour cell line growth inhibition, 48 h
The source made the active and inactive calls. No stated cut-off is given here; in the data, active = GI50 up to about 1.1 µM and inactive = higher.
Outcomes: active, inactive

{"compound": "CCCCCCCCCCCC(=O)OCC(C[As](=O)(O)O)OC(=O)CCCCCCCCCCC (stereo unspecified)", "classification": "inactive"}
{"compound": "COc1cc(C)cc(OC)c1/C=C/C(=O)O", "classification": "inactive"}
{"compound": "C(=C\\c1csnn1)/c1cccnc1", "classification": "inactive"}
{"compound": "O=C(O)CC(Cc1ccccc1Cl)C(=O)O (stereo unspecified)", "classification": "inactive"}
{"compound": "CCN(CC)CCNc1n[n+]([O-])c2cc([N+](=O)[O-])ccc2[n+]1[O-]", "classification": "active"}
{"compound": "C=C1Oc2nc3ccccc3c(=O)n2C1(C)C", "classification": "inactive"}

---

Tested on: OVCAR-5
protocol.notes: NCI tumour cell line growth inhibition, 48 h
Calls of active or inactive are those of the source. No stated cut-off is given here; in the data, active = GI50 up to about 1.1 µM and inactive = higher.
# reported GI50; entries follow
reported.metric: GI50

{"compound": "O=C1CCC(=O)C(C(=O)CCC(=O)Nc2cccc(Cl)c2)C1 (stereo not given)", "result": "> 100 µM (inactive)"}
{"compound": "O=C(O)CCCc1nc2c(n1-c1ccccc1)C(=O)c1ccccc1C2=O", "result": "> 100 µM (inactive)"}
{"compound": "O=C1N=NC(=O)N1c1cc(C(F)(F)F)cc(C(F)(F)F)c1", "result": "4.09 µM (inactive)"}
{"compound": "CN1CCN(C2=C(Cl)C3(OCCS3)C(F)(F)C2(F)F)CC1 (stereo not given)", "result": "> 100 µM (inactive)"}
{"compound": "N#C/C(=C\\c1ccc(O)c(O)c1)C(=O)NC1CCC(CC2CCC(NC(=O)/C(C#N)=C/c3ccc(O)c(O)c3)CC2)CC1 (stereo not given)", "result": "2.08 µM (inactive)"}
{"compound": "C#CCN(Cc1ccc2nc(-c3ccccc3)c(Cl)nc2c1)c1cc(OC)c(OC)c(OC)c1", "result": "> 100 µM (inactive)"}
{"compound": "O=S(=O)(O)c1ccc(O)c(/N=N/c2c(O)ccc3ccccc23)c1", "result": "> 100 µM (inactive)"}
{"compound": "NCCNC(=O)c1cccc2cc3ccccc3nc12", "result": "3.74 µM (inactive)"}
{"compound": "CC1CC(=O)Nc2cc(Cl)ccc2N1C(=O)C1CC1 (stereo not given)", "result": "> 100 µM (inactive)"}
{"compound": "Cc1ccc(N2Cc3c(ccc4ccccc34)OP2(=O)Oc2ccc(Cl)c(C)c2)cc1 (stereo not given)", "result": "> 100 µM (inactive)"}

---

# reported GI50; entries follow
Test system: M19-MEL
protocol.notes: NCI tumour cell line growth inhibition, 48 h
Active and inactive are the calls of the source. Rule as the data show it: active = GI50 up to about 1.1 µM and inactive = higher.
reported.metric: GI50

{"compound": "C#CCN1C(=O)CN2C(Cl)(Cl)C2(c2ccccc2)c2cc(Cl)ccc21 (configuration not stated)", "result": "84.3 µM (inactive)"}
{"compound": "CCC1=CCN(c2ccc(C)cc2)OC1c1ccc(OC)cc1 (configuration not stated)", "result": "42.7 µM (inactive)"}
{"compound": "O=C1Cc2ccccc2N1/N=C\\c1ccc(O)cc1", "result": "> 100 µM (inactive)"}
{"compound": "CC(=O)/C=C1\\CC(=O)N(C)c2ccccc2N1", "result": "> 100 µM (inactive)"}
{"compound": "CNc1nc(N)cc(O)n1", "result": "> 100 µM (inactive)"}
{"compound": "CC1OC(OCC2OC(Oc3c(-c4ccc(O)cc4)oc4cc(O)cc(O)c4c3=O)C(OC3OCC(O)(CO)C3O)C(O)C2O)C(O)C(O)C1O (configuration not stated)", "result": "21.7 µM (inactive)"}
{"compound": "CN(C)/N=C(/c1nc2ccc(Cl)cc2nc1O)C(O)c1ccc(C(O)/C(=N\\N(C)C)c2nc3ccc(Cl)cc3nc2O)cc1 (configuration not stated)", "result": "> 100 µM (inactive)"}
{"compound": "COc1cccc(/C=C2\\C(=O)N(C(=O)Cc3ccccc3)N=C2C)c1", "result": "> 100 µM (inactive)"}
{"compound": "O=C1C=Cc2noc3cccc1c23", "result": "3.18 µM (inactive)"}
{"compound": "Cc1c(/C=N/N=C/c2[nH]c(C(=O)OC(C)(C)C)c(C)c2C)[nH]c(C(=O)OC(C)(C)C)c1C", "result": "> 100 µM (inactive)"}
{"compound": "CCOC(=O)c1oc2c(OC)ccc3c2c1CCC3", "result": "> 100 µM (inactive)"}
{"compound": "COC[n+]1cc2cc(OC)c(OC)cc2c2ccc3cc(OC)c(OC)cc3c21", "result": "> 100 µM (inactive)"}
{"compound": "COc1ccc(/C=N/NC(=O)CSc2nc(-c3ccccc3)c(-c3ccccc3)[nH]2)cc1OC", "result": "18.4 µM (inactive)"}
{"compound": "O=C(OCc1ccccc1)N1N=NC2C3CC(OCc4ccccc4)(OCc4ccccc4)C(O3)C21 (configuration not stated)", "result": "24.4 µM (inactive)"}
{"compound": "O=C(CCc1ccccc1)On1nnc2ccccc2c1=O", "result": "> 100 µM (inactive)"}
{"compound": "N#Cc1cccnc1Cl", "result": "> 100 µM (inactive)"}
{"compound": "Cc1ccccc1N1C(=O)C2C=CC(n3[nH]c(=O)n(Cc4ccccc4)c3=O)CC2C1=O (configuration not stated)", "result": "> 100 µM (inactive)"}
{"compound": "CN(C)CC(/C(Cc1ccccc1)=N\\NC(=O)c1ccncc1)c1ccccc1 (configuration not stated)", "result": "30.1 µM (inactive)"}
{"compound": "C/C(=N\\NC(=O)c1cccnc1)c1cccc(/C(C)=N/NC(=O)c2cccnc2)n1", "result": "13.2 µM (inactive)"}
{"compound": "O=S1(=O)CS(=O)(=O)OCCO1", "result": "48.8 µM (inactive)"}
{"compound": "COC(=O)C(C)Oc1ccc(O)cc1 (configuration not stated)", "result": "> 100 µM (inactive)"}
{"compound": "O=C(CCc1cc(-c2ccccc2)nc(S)n1)N(Cc1ccccc1)Cc1ccccc1", "result": "> 100 µM (inactive)"}
